Can you tell me logkw, Table S4 for the items I'm about to list?
assay: C8 chromatography (RP-HPLC), logkw from two gradients with DryLab; assay type: physicochemical; conditions: C8 chromatography, pH 7.4; short and long gradient
Answers are plain numbers.

Record excerpt, results attached:
COc1ccc(NC(=O)c2cc(S(=O)(=O)Nc3nncc(-c4ccc(OC)cc4)n3)c(SCc3ccccc3)cc2Cl)cc1 [Compound 20]: 4.020
Cc1cc(S(=O)(=O)Nc2nnc(C)c(=O)[nH]2)c(SCc2cccc3ccccc23)cc1Cl [Compound 9]: 3.692
Cc1cc(S(=O)(=O)Nc2nnc(-c3ccccc3)c(=O)[nH]2)c(SCc2cccc3ccccc23)cc1Cl [Compound 10]: 4.211
O=S(=O)(Nc1cccc2nsnc12)c1ccc(-n2cccc2)cc1 [Compound 5]: 4.055
O=S(=O)(Nc1cccc2cccnc12)c1ccc(-n2cccc2)cc1 [Compound 2]: 4.682
Cc1cc(S(=O)(=O)Nc2nncc(-c3ccc(C(F)(F)F)cc3)n2)c(SCc2ccc(C(F)(F)F)cc2)cc1Cl [Compound 21]: 4.440
Cc1cc(S(=O)(=O)Nc2nnc(-c3ccccc3)c(=O)[nH]2)c(SCc2ccc(C(F)(F)F)cc2)cc1Cl [Compound 8]: 4.206
COc1ccc(-c2cnnc(NS(=O)(=O)c3cc(C(=O)Nc4ccc(Cl)cc4)c(Cl)cc3SCc3ccccc3)n2)cc1 [Compound 16]: 4.380

Below is a list of compounds. For each, state its recorded logkw, Table S4.
1. COc1cc(-c2cnnc(NS(=O)(=O)c3cc(C(=O)Nc4ccc(C)cc4)c(Cl)cc3SCc3ccccc3)n2)cc(OC)c1OC [Compound 19]
2. O=S(=O)(Nc1ccc(Cl)cc1)c1ccc(-n2cccc2)cc1 [Compound 6]

Output:
1. 4.068
2. 4.609

Below is a list of compounds. For each, state its recorded logkw, Table S4.
1. COc1ccc(-c2cnnc(NS(=O)(=O)c3cc(C(=O)Nc4ccc(C)cc4)c(Cl)cc3SCc3ccccc3)n2)cc1 [Compound 18]
2. Cc1cc(S(=O)(=O)Nc2nnc(Cc3ccccc3)c(=O)[nH]2)c(SCc2cc3c(cc2Cl)OCO3)cc1Cl [Compound 11]

Output:
4.280
4.074

Below is a list of compounds. For each, state its recorded logkw, Table S4.
1. Cc1ccc2cccnc2c1NS(=O)(=O)c1ccc(-n2cccc2)cc1 [Compound 3]
2. Cc1ccnc(NS(=O)(=O)c2ccc(-n3cccc3)cc2)n1 [Compound 1]
3. Cc1cc(S(=O)(=O)Nc2nnc(Cc3ccccc3[N+](=O)[O-])c(=O)[nH]2)c(SCc2cc3c(cc2Cl)OCO3)cc1Cl [Compound 12]

Output:
1. 4.593
2. 2.980
3. 4.070
